src = patent US20250270341A1

- tested target: T1, Full length mouse CD98hc on CHO cells (mouse, UniProt P10852 1-526)
- T1 construct: CHO cells stably overexpressing it; also called CHO-mouse CD98hc; CHO-mCD98hc
- T1 sequence: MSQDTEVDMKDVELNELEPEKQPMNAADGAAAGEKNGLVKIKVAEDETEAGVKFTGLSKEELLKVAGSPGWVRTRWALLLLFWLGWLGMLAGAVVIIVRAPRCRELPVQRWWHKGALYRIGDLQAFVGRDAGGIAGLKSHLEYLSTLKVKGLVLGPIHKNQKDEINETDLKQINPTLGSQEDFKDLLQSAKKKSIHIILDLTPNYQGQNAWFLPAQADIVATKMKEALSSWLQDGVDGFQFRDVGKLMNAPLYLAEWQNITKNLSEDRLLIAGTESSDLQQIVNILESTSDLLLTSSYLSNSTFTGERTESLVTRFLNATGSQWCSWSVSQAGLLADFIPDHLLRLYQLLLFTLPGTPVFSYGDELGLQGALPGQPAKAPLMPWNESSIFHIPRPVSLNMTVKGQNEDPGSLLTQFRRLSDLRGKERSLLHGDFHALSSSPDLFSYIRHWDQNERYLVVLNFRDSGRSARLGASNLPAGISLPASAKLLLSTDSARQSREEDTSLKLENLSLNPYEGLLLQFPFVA
- test protocol: FACS, hybridoma supernatant

binder	binding result
CD98HC.04.018 (antibody, V domains shown, hybridoma IgG) VH: QIQLVQSGPELKKPGETVKISCKASGYTFRNYGMNWVKQAPGKGLKWMGWINTYTGEPTYAEDFKGRFAFSLETSASTAYLQINKLKNEDEATYFCARGEAHWYFDVWGAGTTVTVSS VL: QIVLTQSPAIMSASLGERVTMTCTASSSVSSSYLYWYQQKPGSSPKLWIYSIFNLASGVPARFSGSGSGTSYSLTISSMEAEDAATYYCHQYHRSPPTFGGGTKLEIK	no binding
CD98HC.04.045 (antibody, V domains shown, hybridoma IgG) VH: QIQLVQSGPELKKPGETVKISCKASGYSITNFGMNWVKQAPGKGLKWMGWVNTYTGEPTYADDFKGRFAFSLETSASTASLQINNLKNEDTATYFCTRSVITYTMDYWGQGTSVTVSS VL: DIQLTQSPSSLSASLGERVSLTCRASQEISGYLSWLQQKPDGTIKRLIYAASTLDSGVPKRFSGSRSGSDYSLTISSLESEDFADYYCLQYASYPRTFGGGTKVEIK	no binding
CD98HC.03.004 (antibody, V domains shown, hybridoma IgG) VH: DVQLQESGPGLVKPSQSLSLTCTVTGYSITNNYAWNWIRRFPGNKLEWMAYISYSGYTSYNPSLKSRISITRDTSKNQFFLQLNSVTTEDTATYYCTGYFYYYGGGSFDYWGQGTTLTVSS VL: QAVVTQESALTTSPGETVTLTCRSSTGAVTTSNFANWVQEKPDHLFTGLIRGSNNRAPGVPARFSGSLIGDKAALTITGARTEDEAIYFCALWYSDHWVFGGGTKLTVL	no binding
